Parameter: PBM binding z-score. Scope: all listed entries.
- Test system: PPARg:RXRa 30nM:10nM, anti-RXR (NR concentration 30 nM, RXRa partner concentration 10 nM)
- protocol: PBM binding z-score (relative to random genomic background probes); higher = stronger binding; sequences stand for … in GC…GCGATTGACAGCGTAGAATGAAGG
recorded endpoint: PBM binding z-score

>  <input sequence>
CCTCGGAGGACAGAAGGCCAGAGCTGTCCGCTTT

>  <target of assay>
PPARg:RXRa 30nM:10nM, anti-RXR (NR concentration 30 nM, RXRa partner concentration 10 nM)

>  <recorded endpoint>
PBM binding z-score

>  <observed measurement>
-1.21

$$$$
>  <input sequence>
AGAATGAGGTTATACCTAGATCAGGGAAGAAAGT

>  <target of assay>
PPARg:RXRa 30nM:10nM, anti-RXR (NR concentration 30 nM, RXRa partner concentration 10 nM)

>  <recorded endpoint>
PBM binding z-score

>  <observed measurement>
0.532

$$$$
>  <input sequence>
CCTATTAGTTGACCAGAAGGGCAACCGAAGCTCG

>  <target of assay>
PPARg:RXRa 30nM:10nM, anti-RXR (NR concentration 30 nM, RXRa partner concentration 10 nM)

>  <recorded endpoint>
PBM binding z-score

>  <observed measurement>
-0.116

$$$$
>  <input sequence>
CGTCCAAGGTCATCGGAGGTCAGTGAAGACAGAT

>  <target of assay>
PPARg:RXRa 30nM:10nM, anti-RXR (NR concentration 30 nM, RXRa partner concentration 10 nM)

>  <recorded endpoint>
PBM binding z-score

>  <observed measurement>
2.4

$$$$
>  <input sequence>
TCTAGTAGTTGATTAGGGCAACCGAAACAGCGGA

>  <target of assay>
PPARg:RXRa 30nM:10nM, anti-RXR (NR concentration 30 nM, RXRa partner concentration 10 nM)

>  <recorded endpoint>
PBM binding z-score

>  <observed measurement>
2.74

$$$$
>  <input sequence>
TCTGCTAGGTCAGTTGGTGAGCTAACGAGCTGCC

>  <target of assay>
PPARg:RXRa 30nM:10nM, anti-RXR (NR concentration 30 nM, RXRa partner concentration 10 nM)

>  <recorded endpoint>
PBM binding z-score

>  <observed measurement>
1.18

$$$$
>  <input sequence>
CCTTACGGGTGACTCCAGGTTATAGCATCGGAGT

>  <target of assay>
PPARg:RXRa 30nM:10nM, anti-RXR (NR concentration 30 nM, RXRa partner concentration 10 nM)

>  <recorded endpoint>
PBM binding z-score

>  <observed measurement>
-0.12

$$$$
>  <input sequence>
TCTCGGCGGACACGAAGGTCAGAGCTTTCCAGAG

>  <target of assay>
PPARg:RXRa 30nM:10nM, anti-RXR (NR concentration 30 nM, RXRa partner concentration 10 nM)

>  <recorded endpoint>
PBM binding z-score

>  <observed measurement>
1.16

$$$$
>  <input sequence>
CCTACTGGCCCACGAAAGGTCATTGATTCAGTGA

>  <target of assay>
PPARg:RXRa 30nM:10nM, anti-RXR (NR concentration 30 nM, RXRa partner concentration 10 nM)

>  <recorded endpoint>
PBM binding z-score

>  <observed measurement>
0.593

$$$$
>  <input sequence>
TCTGCTAGGTCAACGATGGTCAGCTAATCTGCTA

>  <target of assay>
PPARg:RXRa 30nM:10nM, anti-RXR (NR concentration 30 nM, RXRa partner concentration 10 nM)

>  <recorded endpoint>
PBM binding z-score

>  <observed measurement>
1.76

$$$$
>  <input sequence>
CAAACTAGGTCACGAAAGGACAAAGTCGAATGAC

>  <target of assay>
PPARg:RXRa 30nM:10nM, anti-RXR (NR concentration 30 nM, RXRa partner concentration 10 nM)

>  <recorded endpoint>
PBM binding z-score

>  <observed measurement>
5.83

$$$$
>  <input sequence>
AGAACGAGGGCAATGAGTTGATACCACGGGTGGC

>  <target of assay>
PPARg:RXRa 30nM:10nM, anti-RXR (NR concentration 30 nM, RXRa partner concentration 10 nM)

>  <recorded endpoint>
PBM binding z-score

>  <observed measurement>
-0.0193

$$$$

###

Catalogue of PBM binding z-score values
- System: PPARg:RXRa DBDmut IVT, anti-RXR (DBD mutation: RXRa K156A/R161A, NR concentration 270 nM, RXRa partner concentration 90 nM)
- protocol: PBM binding z-score (relative to random genomic background probes); higher = stronger binding; sequences stand for … in GC…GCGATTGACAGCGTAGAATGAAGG
recorded endpoint: PBM binding z-score

>  <input sequence>
CAAACTAGGGCACAGAGGTCAAAGTCCGTGCGTA

>  <recorded endpoint>
PBM binding z-score

>  <observed measurement>
7.7

$$$$
>  <input sequence>
TAGCCTAGGTCGGATCGGGCCAGTATACGCTATA

>  <recorded endpoint>
PBM binding z-score

>  <observed measurement>
-0.693

$$$$
>  <input sequence>
CAAATTAGGTCAAGAGGTCAAAGTCCGCTTCCCG

>  <recorded endpoint>
PBM binding z-score

>  <observed measurement>
8.5

$$$$
>  <input sequence>
TCTCGGAGGACACGAGAGGTCAGAGCTCGACATC

>  <recorded endpoint>
PBM binding z-score

>  <observed measurement>
1.28

$$$$
>  <input sequence>
TCGAGTCGGTTACCAATGGGGCATTCAGCTTTCT

>  <recorded endpoint>
PBM binding z-score

>  <observed measurement>
0.844

$$$$
>  <input sequence>
CTACCAAGGTGAACAAGGCCGTTGATTACTATTC

>  <recorded endpoint>
PBM binding z-score

>  <observed measurement>
2.3

$$$$

###

- Tested on: LXRa homodimer (NR concentration 270 nM)
- protocol: PBM binding z-score (relative to random genomic background probes); higher = stronger binding; sequences stand for … in GC…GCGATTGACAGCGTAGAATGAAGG

>  <input sequence>
TCTTGTAGAACAGCAGGTTAAGAAAGCTGGCCAA

>  <PBM binding z-score>
-0.708

$$$$
>  <input sequence>
GCAGACAGGTGACACGCAGGTAACTCAGGGTGGC

>  <PBM binding z-score>
-0.585

$$$$
>  <input sequence>
GGAACGAGGGCAAGTTGAAAGCAGAGTTTGATGG

>  <PBM binding z-score>
-0.173

$$$$
>  <input sequence>
TCTAGCAGGCCAGAGGGACACTCAAGAGGTACGG

>  <PBM binding z-score>
-1.2

$$$$
>  <input sequence>
AGAATGAGGTAATTAAGATCAGGGAATTGCGGTC

>  <PBM binding z-score>
-0.0232

$$$$
>  <input sequence>
ATCGAAAGGTCGACGGGGTGAGTATACACCGTTT

>  <PBM binding z-score>
0.287

$$$$
>  <input sequence>
CCTACTGGGCCAAGAAGGTCATTGATGCCGATAA

>  <PBM binding z-score>
0.897

$$$$
>  <input sequence>
ATTCAAAGTTCAGGACGAGGTAACGTAAAGCACG

>  <PBM binding z-score>
1.92

$$$$
>  <input sequence>
AGATGTAGGTTAAGGGTCATTCAGGTTGGTTCGC

>  <PBM binding z-score>
2.97

$$$$
>  <input sequence>
ATATCTAGGTTAGCTGGGGTCATTCAGACTAGGC

>  <PBM binding z-score>
3.33

$$$$
>  <input sequence>
CAGCCGAGGTCAGGGCCAGTATAGGAGGAACGTT

>  <PBM binding z-score>
-0.152

$$$$
>  <input sequence>
CGTCAAAGTTCAACTAAGGTAACGTAGAGCACGC

>  <PBM binding z-score>
4.18

$$$$
>  <input sequence>
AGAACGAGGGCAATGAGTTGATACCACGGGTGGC

>  <PBM binding z-score>
-0.493

$$$$
>  <input sequence>
ATCTCTAGGTAAAGTTCAGGGAAAGATCGATAGA

>  <PBM binding z-score>
1.88

$$$$
>  <input sequence>
TCTTGTAGATCAACATGAGGTTAAGAAAGATCGA

>  <PBM binding z-score>
0.535

$$$$
>  <input sequence>
TCGAGTAGGTTATGGGCATTCAGAATGGCGTCGA

>  <PBM binding z-score>
-0.538

$$$$
>  <input sequence>
TCATGTAGATCAACAGGAGGTTAAGAAAGATCGA

>  <PBM binding z-score>
0.0437

$$$$
>  <input sequence>
GCTTCTAGGTCAACTGATGGTCAGCTAAAGCTCG

>  <PBM binding z-score>
0.562

$$$$
>  <input sequence>
CCTTACGGGTCACGGACAGGTTATAGCATTTGGA

>  <PBM binding z-score>
0.422

$$$$
>  <input sequence>
AGTCAAAGTTCAATAGGTAACGTAAGATTCAGCT

>  <PBM binding z-score>
3.45

$$$$
>  <input sequence>
CCTACTGGGCCAATGGTCATTGATTCCAATGCTC

>  <PBM binding z-score>
-0.691

$$$$
>  <input sequence>
TCATATAGTTAAAGGTGAAAGTCGAACGATATGA

>  <PBM binding z-score>
-0.183

$$$$
>  <input sequence>
GCATATAGTTAATACAAGGTGAAAGTCCGATTGT

>  <PBM binding z-score>
0.623

$$$$
>  <input sequence>
ATCGAAAGGTCGAGGTTAGTATAGAGAAAGGGAA

>  <PBM binding z-score>
0.422

$$$$
>  <input sequence>
TAGCCTGGGTCATGCGGGCCAGTATAGTGTCGGC

>  <PBM binding z-score>
-0.665

$$$$
>  <input sequence>
CGAACTAGGTCAAGGAAAGTGAATCTCCGCACGC

>  <PBM binding z-score>
-0.152

$$$$
